Reported GI50 by item:
Tested on: IGROV-1
procedure.text: Cytostatic activity against human IGROV1 cells
Type: functional

Some solved cases for reference:
N=C(NO)NS(=O)(=O)c1cc(-c2nnc(-c3ccccc3)s2)c(Cl)cc1SCc1ccc2c(c1)OCO2
1680 nM
N=C(NO)NS(=O)(=O)c1cc(-c2nc(-c3ccccc3)no2)c(Cl)cc1SCc1ccc2c(c1)OCO2
2570 nM
N=C(NO)NS(=O)(=O)c1cc(-c2nc(-c3ccc(Cl)cc3)cs2)c(Cl)cc1SCc1ccc2c(c1)OCO2
25100 nM

// below: GI50 requested for another compound
// query For the compound shown here, `N=C(NO)NS(=O)(=O)c1cc(-c2nnc(-c3ccc(Cl)cc3)s2)c(Cl)cc1SCc1ccccc1` , give the reported GI50.
// result 2570 nM

* * *

System: U-251
procedure.text: Cytostatic activity against human U251 cells
Format: functional
Threshold 2000 nM. GI50 below it: Y. GI50 at it or above: N.

N=C(NO)NS(=O)(=O)c1cc(-c2nnc(-c3ccc(Cl)cc3)s2)c(Cl)cc1SCc1ccc2c(c1)OCO2
N

// query Is GI50 of `N=C(NO)NS(=O)(=O)c1cc(-c2nnc(-c3ccc(Cl)cc3)s2)c(Cl)cc1SCc1ccccc1` strictly below 2000 nM?
// result Y

// query Is GI50 of `N=C(NO)NS(=O)(=O)c1cc(-c2nnc(-c3ccccc3)s2)c(Cl)cc1SCc1ccc2c(c1)OCO2` strictly below 2000 nM?
// result Y

// query Is GI50 of `N=C(NO)NS(=O)(=O)c1cc(-c2nc(-c3ccc(Cl)cc3)cs2)c(Cl)cc1SCc1ccc2c(c1)OCO2` strictly below 2000 nM?
// result N

// query Is GI50 of `N=C(NO)NS(=O)(=O)c1cc(-c2nc(-c3ccccc3)no2)c(Cl)cc1SCc1ccccc1` strictly below 2000 nM?
// result Y

* * *

System: MDA-MB-231
procedure.text: Cytostatic activity against human MDA-MB-231/ATCC cells
Type: functional
Threshold 2000 nM. GI50 below it: Yes. GI50 at it or above: No.

N=C(NO)NS(=O)(=O)c1cc(-c2nc(-c3ccccc3)cs2)c(Cl)cc1SCc1ccc2c(c1)OCO2
No
N=C(NO)NS(=O)(=O)c1cc(-c2nnc(-c3ccccc3)s2)c(Cl)cc1SCc1ccc2c(c1)OCO2
Yes
N=C(NO)NS(=O)(=O)c1cc(-c2nnc(-c3ccc(Cl)cc3)s2)c(Cl)cc1SCc1ccc2c(c1)OCO2
No
N=C(NO)NS(=O)(=O)c1cc(-c2nnc(-c3ccc(Cl)cc3)s2)c(Cl)cc1SCc1ccccc1
No

Could you now look at the following compound, please?
// query Is GI50 of `N=C(NO)NS(=O)(=O)c1cc(-c2nc(-c3ccc(Cl)cc3)cs2)c(Cl)cc1SCc1ccc2c(c1)OCO2` strictly below 2000 nM?
// result No

* * *

Test system: IGROV-1
procedure.text: Cytostatic activity against human IGROV1 cells
Assay type: functional
experimental.endpoint: log10(GI50) (log10 of the value in µM)
In our notation, the value equals log10 of GI50 in µM.

Some solved cases for reference:
COc1cc(CSc2cc(Cl)c(-c3nc(-c4ccccc4)no3)cc2S(=O)(=O)NC(=N)NO)cc(OC)c1OC
0.75
N=C(NO)NS(=O)(=O)c1cc(-c2nc(-c3ccccc3)cs2)c(Cl)cc1SCc1ccc2c(c1)OCO2
0.45
COc1cc(CSc2cc(Cl)c(-c3nnc(-c4ccccc4)s3)cc2S(=O)(=O)NC(=N)NO)cc(OC)c1OC
0.57
COc1cc(CSc2cc(Cl)c(-c3nnc(-c4ccc(Cl)cc4)s3)cc2S(=O)(=O)NC(=N)NO)cc(OC)c1OC
1.77
COc1cc(CSc2cc(Cl)c(-c3nc(-c4ccc(Cl)cc4)no3)cc2S(=O)(=O)NC(=N)NO)cc(OC)c1OC
0.58
N=C(NO)NS(=O)(=O)c1cc(-c2nnc(-c3ccc(Cl)cc3)s2)c(Cl)cc1SCc1ccc2c(c1)OCO2
0.54
N=C(NO)NS(=O)(=O)c1cc(-c2nc(-c3ccccc3)no2)c(Cl)cc1SCc1ccccc1
0.38

// below: log10(GI50) requested for another compound
// query For the compound shown here, `N=C(NO)NS(=O)(=O)c1cc(-c2nc(-c3ccc(Cl)cc3)no2)c(Cl)cc1SCc1ccc2c(c1)OCO2` , give the reported log10(GI50).
// result 0.33
